Data origin, for the record: PubChem BioAssay

# inhibition per entry
Target: 6-phosphogluconate dehydrogenase, decarboxylating (Homo sapiens) (UniProt P52209)
Sequence (P52209 whole entry, looked up): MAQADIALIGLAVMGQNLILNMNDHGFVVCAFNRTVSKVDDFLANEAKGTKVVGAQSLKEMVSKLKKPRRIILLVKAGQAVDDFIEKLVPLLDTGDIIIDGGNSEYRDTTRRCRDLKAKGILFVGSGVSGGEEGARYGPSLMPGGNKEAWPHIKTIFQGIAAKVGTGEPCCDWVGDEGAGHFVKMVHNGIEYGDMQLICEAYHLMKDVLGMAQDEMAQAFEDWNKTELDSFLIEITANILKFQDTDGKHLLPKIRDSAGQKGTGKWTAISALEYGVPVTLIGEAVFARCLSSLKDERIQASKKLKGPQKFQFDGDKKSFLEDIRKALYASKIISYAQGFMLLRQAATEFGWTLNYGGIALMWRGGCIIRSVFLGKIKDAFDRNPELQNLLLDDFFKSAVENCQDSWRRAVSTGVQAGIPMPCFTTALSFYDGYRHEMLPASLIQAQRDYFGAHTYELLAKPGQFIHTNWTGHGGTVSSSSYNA
Assay: 6PGD enzyme inhibitors, primary screen, biochemical, human, recombinant enzyme, NADPH absorbance (AID 1159550)
Details: recombinant 6PGD, NADPH absorbance 341 nm; at 10 µM; active compounds read high
REPORTED METRIC: inhibition (%)

[[record]]
compound = "Nc1ncn([C@@H]2O[C@H](CO)[C@@H](O)[C@H]2O)c(=O)n1"
meas_value = 4.17

[[record]]
compound = "Cc1ccc(Cl)c(Nc2ccccc2C(=O)O)c1Cl"
meas_value = 7.02

[[record]]
compound = "Cc1c(OCC(F)(F)F)ccnc1CS(=O)c1nc2ccccc2[nH]1 (stereo not given)"
meas_value = -1.09

[[record]]
compound = "NC(N)=NC(=O)c1nc(Cl)c(N)nc1N"
meas_value = 7.13

[[record]]
compound = "COc1ccc(OC)c(C(O)CNC(=O)CN)c1 (stereo not given)"
meas_value = -19.4

[[record]]
compound = "CCOC(=O)C1=C(COCCN)NC(C)=C(C(=O)OC)C1c1ccccc1Cl (stereo not given)"
meas_value = 3.33

[[record]]
compound = "C#C[C@]1(O)CC[C@H]2[C@@H]3CCC4=CC(=O)CC[C@@H]4[C@H]3CC[C@@]21CC"
meas_value = -0.702

[[record]]
compound = "CC(=O)Nc1nnc(S(N)(=O)=O)s1"
meas_value = -4.83

[[record]]
compound = "CN(C)C(=O)Oc1ccc[n+](C)c1"
meas_value = -7.31

[[record]]
compound = "CN(C)CC/C=C1\\c2ccccc2COc2ccccc21"
meas_value = 2.99

[[record]]
compound = "CCn1cc(C(=O)O)c(=O)c2cc(F)c(N3CCN(C)CC3)cc21"
meas_value = 5

[[record]]
compound = "COc1ccccc1OCC(O)COC(N)=O (stereo not given)"
meas_value = -17.6

[[record]]
compound = "Oc1c(Cl)cc(Cl)c2cccnc12"
meas_value = 13

[[record]]
compound = "CC(N=C(NC#N)Nc1ccncc1)C(C)(C)C (stereo not given)"
meas_value = -10.6

[[record]]
compound = "NNCCc1ccccc1"
meas_value = 8.47

[[record]]
compound = "O=C(O)CCCc1ccccc1"
meas_value = -10

[[record]]
compound = "CCCCNc1cc(C(=O)O)cc(S(N)(=O)=O)c1Oc1ccccc1"
meas_value = 0

[[record]]
compound = "Cc1cccc(Nc2ccccc2C(=O)O)c1C"
meas_value = 17.3

[[record]]
compound = "COc1ccc2cc(CCC(C)=O)ccc2c1"
meas_value = -24.5

[[record]]
compound = "CCOC(=O)[C@H](CCc1ccccc1)N[C@H]1CCc2ccccc2N(CC(=O)O)C1=O"
meas_value = -6.81

